System: Trypanosoma cruzi
Test: Trypanosoma cruzi phosphomannomutase and mannose-1-phosphate guanylyltransferase assay
Type: functional
Set-up: scale not given: direction of the effect not stated beside the values
Settings: 10 µM
Attribute: Percent Effect
metric_name: Percent Effect (%)

test_smiles=Cc1nnc2n1CCN(Cc1csc(CC(=O)N(C)C)n1)C2 readout_unit=% observed=-1.21
test_smiles=O[C@H]1[C@H](n2cc(-c3ccccc3)nn2)c2ccccc2C12CCNCC2 readout_unit=% observed=1.65
test_smiles=CCN(Cc1ccc2c(c1)OCO2)C(=O)c1ccc(C)[nH]c1=O readout_unit=% observed=11.5

----------
Target: Tyrosyl-tRNA synthetase, putative (Trypanosoma cruzi (strain CL Brener))
Assay: Trypanosoma cruzi tyrosyl tRNA synthetase (TcYRS) SOP
Type: functional
Set-up: scale not given: direction of the effect not stated beside the values
Conditions: 30 µM
metric_name: Percent Effect (%)

compound=CC1CCN(Cn2nc(-c3ccc(F)cc3)oc2=O)CC1 readout_unit=% observed=7.32
compound="CSCCC1c2nc[nH]c2CCN1Cc1ccnc2ccccc12 (stereo not drawn)" readout_unit=% observed=6.17
compound=CCCn1[nH]cc/c1=N\C(=O)CN1CCn2c(nnc2C2CC2)C1 readout_unit=% observed=9.76
compound=Cc1ccc(CCC(=O)N(C)CCN2CCOCC2)c(C)c1 readout_unit=% observed=5.2
compound="CCc1cnc(CN(C)C2CCN(CCc3cccs3)C2)o1 (stereo not drawn)" readout_unit=% observed=18.5
compound=O=C(Cc1ccc2c(c1)OCO2)N1CCN(c2cnccn2)CC1 readout_unit=% observed=21.9
compound="CCN(CC1CN(Cc2ncc[nH]2)CCO1)c1cccnn1 (stereo not drawn)" readout_unit=% observed=8.64
compound=Cc1cnn(CCNCc2csc(-c3ccc4c(c3)OCO4)n2)c1 readout_unit=% observed=4.88
compound="CCn1ccnc1CN1CCN(CCC(=O)NC(C)(C)C)CC1C (stereo not drawn)" readout_unit=% observed=15.8
compound="CCN1CCC(CNC(=O)C2(c3cccc(C)c3)CC2)C1 (stereo not drawn)" readout_unit=% observed=15.2
compound=Cc1nc(CN2CCN(CC(=O)Nc3c(C)cccc3C)CC2)no1 readout_unit=% observed=18.8
compound=O=c1ccc(-c2ccccc2F)nn1CCN1CCCS1(=O)=O readout_unit=% observed=8.64
compound=O=C(CCc1cc2n(n1)CCCN(Cc1ccccc1F)C2)NC1CC1 readout_unit=% observed=5.13
compound=Cn1cc(CN2CC[C@H]3C[C@H](c4nc(C5CC5)cs4)O[C@@H]3C2)cn1 readout_unit=% observed=16.1
compound=O=c1ccc2c(n1CCN1CCCC1)CCN(Cc1ccoc1)CC2 readout_unit=% observed=13.6
compound="COc1cccc(CCNC(=O)CN2CCN(C)CC2C)c1 (stereo not drawn)" readout_unit=% observed=15.8
compound=COc1ccc(CN2C[C@@H](N(C)Cc3ccco3)[C@H]3OCCC[C@H]32)cc1 readout_unit=% observed=8.97
compound="Cc1nc(CN2CC3(CCN(c4ncc(F)cn4)C3)CC2=O)cs1 (stereo not drawn)" readout_unit=% observed=8.97
compound=CCc1nnc2n1CCN(CC(=O)Nc1sccc1C#N)C2 readout_unit=% observed=6.17
compound="c1ccc(-c2nc(CN3CCCC(Cn4cncn4)C3)no2)cc1 (stereo not drawn)" readout_unit=% observed=7.59
compound=c1coc(-c2noc(CN3CCC(c4ccn[nH]4)CC3)n2)c1 readout_unit=% observed=7.32
compound="O=C(CN1CCCCC1Cn1cncn1)NCCC1=CCCCC1 (stereo not drawn)" readout_unit=% observed=-3.8
compound=C[C@H]1C[C@@H]2CCN(C(=O)c3cccn3C)C[C@H]2O1 readout_unit=% observed=5.13
compound="Cc1noc(C2CCC3(CCN(C(=O)C4=CCCCC4)CC3)O2)n1 (stereo not drawn)" readout_unit=% observed=16.1
compound=CSC(C)(C)CNC(=O)NC1CCN(C)CC1 readout_unit=% observed=6.17
compound="O=C(c1ccc(F)c(F)c1)N1CCCC1CN1CCCC1 (stereo not drawn)" readout_unit=% observed=18.2
compound="CN1CCOC(CNCc2cccc(OCc3ccccn3)c2)C1 (stereo not drawn)" readout_unit=% observed=11.4
compound=CCN1CCN(c2nc(C(C)C)nc3c(C)nn(CC)c23)CC1 readout_unit=% observed=-48.1
compound="COCc1cccc(NC(C)C(=O)N(C)Cc2ccccc2)c1 (stereo not drawn)" readout_unit=% observed=13.6
compound="COc1ccc(C(=O)NCC(c2cccn2C)N2CCCC2)c(OC)c1 (stereo not drawn)" readout_unit=% observed=11.5
compound="O=c1oc(-c2cccs2)nn1CC(O)c1ccc(F)cc1 (stereo not drawn)" readout_unit=% observed=18.5
compound="COCC(=O)N1CCCC2(CCN(c3ccsc3)C2=O)C1 (stereo not drawn)" readout_unit=% observed=-1.28
compound=CC(=O)N1CCCN(C(=O)c2ccn(-c3cccc(Cl)c3)n2)CC1 readout_unit=% observed=14.6
compound="CN(CCc1ccccc1)C1CCCN(Cc2nccn2C)C1 (stereo not drawn)" readout_unit=% observed=6.17
compound="O=S1(=O)c2ccccc2C2(CCN(Cc3ccccc3)C2)N1CC1CC1 (stereo not drawn)" readout_unit=% observed=3.85
compound=Cc1cc(C)c(CNC(=O)N(C)Cc2sccc2C)c(=O)[nH]1 readout_unit=% observed=11.1
compound="O=C(c1cnc(-c2cccs2)s1)N1CCCC(n2cccn2)C1 (stereo not drawn)" readout_unit=% observed=11.1
compound=Cc1nn(CC(=O)N2CCC(Nc3cccnn3)CC2)c(C)c1Cl readout_unit=% observed=19.5
compound=CCn1c(Cn2cncn2)nnc1C1CCN(Cc2ccncc2)CC1 readout_unit=% observed=21
compound=Cc1cnn(CCC(=O)N2CCC(Nc3cccnn3)CC2)c1 readout_unit=% observed=-8.64
compound=CC(C)(C)c1n[nH]cc1CN1CCc2nc3ccsc3c(=O)n2CC1 readout_unit=% observed=3.9
compound=COCCNS(=O)(=O)c1ccc2c(c1)CCN(C(=O)c1cncn1C)C2 readout_unit=% observed=10.3
compound="c1nc(N2CCCCC2Cn2cncn2)c2ccsc2n1 (stereo not drawn)" readout_unit=% observed=13.6
